biological target: HIV-1 protease (Human immunodeficiency virus type 1 group M subtype B, UniProt P04585); assay: biochemical; conditions: HIV-1 protease; upper line of each compound's entry; read-out: Ki (enzyme)
Below: a set of entries, each annotated with reported Ki.

Below: 3 compounds and their reported Ki.
CCC(C)ON(C[C@@H](O)[C@H](Cc1ccccc1)NC(=O)c1cccc(O)c1C)S(=O)(=O)c1ccc(OC)cc1 (stereo partly drawn) [Compound 70]; < 1 nM
COC(=O)Nc1nc2cc(S(=O)(=O)N(C[C@@H](O)[C@H](Cc3ccccc3)NC(=O)[C@H](CC(N)=O)NC(=O)c3ccc4ccccc4n3)OC3CCCC3)ccc2[nH]1 [Compound 51]; < 1 nM
CCC(CC)ON(C[C@@H](O)[C@H](Cc1ccccc1)NC(=O)O[C@H]1CO[C@H]2OCC[C@H]21)S(=O)(=O)c1ccc2c(c1)OCO2 [Example 162]; < 1 nM

IN: // lookup Ki for O=C(N[C@@H](Cc1ccccc1)[C@@H](CN(OC1CCCC1)S(=O)(=O)c1ccc2c(c1)OCO2)OP(=O)(O)O)O[C@H]1CO[C@H]2OCC[C@H]21 [Compound 143]
OUT: < 1 nM

IN: Give its Ki value. Item: COc1ccc(S(=O)(=O)N(C[C@@H](O)[C@H](Cc2ccccc2)NC(=O)OC(C)(C)C)OCc2ccccc2)cc1 [Compound 21]
OUT: 10 to 100 nM

IN: Recorded Ki for CC(C)(C)OC(=O)N[C@@H](Cc1ccccc1)[C@H](O)CN(OC1CCCC1)S(=O)(=O)c1ccc2[nH]c(NC(=O)N3CCOCC3)nc2c1 [Compound 8] , please?
OUT: < 1 nM

* * *

test system: HIV-1 (strain IIIB); assay: microbe, parasite or virus in culture; format: cell-based; conditions: Human immunodeficiency virus 1, 120 h; MT4 cells infected with HIV-1 strain IIIB, 5 days; lower line of each compound's entry; read-out: IC50 (MT-4 cells)
readout.name: IC50

NC(=O)c1cccc(S(=O)(=O)N(C[C@@H](O)[C@H](Cc2ccccc2)NC(=O)O[C@H]2CO[C@H]3OCC[C@H]32)OC2CCCC2)c1 [Example 173]; ≤ 100 nM

IN: Can you share its IC50? I mean this molecule: NC(=O)C[C@H](NC(=O)c1ccc2ccccc2n1)C(=O)N[C@@H](Cc1ccccc1)[C@H](O)CN(OC1CCCC1)S(=O)(=O)c1ccc2cn[nH]c2c1 [Compound 52]
OUT: ≤ 100 nM

IN: Please give the measured IC50 for this molecule: CC(C)ON(C[C@@H](O)[C@H](Cc1ccccc1)NC(=O)O[C@H]1CO[C@H]2OCC[C@H]21)S(=O)(=O)c1cccc(N(C)C(=O)OC(C)(C)C)c1 [Compound 126]
OUT: > 1000 nM

IN: Reported IC50, molecule O=C(N[C@@H](Cc1ccccc1)[C@H](O)CN(OC1CCCCC1)S(=O)(=O)c1ccc2c(c1)OCCO2)O[C@H]1CO[C@H]2OCC[C@H]21 [Compound 156] : ____
OUT: ≤ 100 nM

IN: Could you tell me which IC50 is on file for CNc1cccc(S(=O)(=O)N(C[C@@H](OP(=O)(O)O)[C@H](Cc2ccccc2)NC(=O)O[C@H]2CO[C@H]3OCC[C@H]32)OC2CCCC2)c1 [Compound 119] ?
OUT: > 1000 nM
